- measuredTarget: Yer064c (UniProt P40041)
- Sequence: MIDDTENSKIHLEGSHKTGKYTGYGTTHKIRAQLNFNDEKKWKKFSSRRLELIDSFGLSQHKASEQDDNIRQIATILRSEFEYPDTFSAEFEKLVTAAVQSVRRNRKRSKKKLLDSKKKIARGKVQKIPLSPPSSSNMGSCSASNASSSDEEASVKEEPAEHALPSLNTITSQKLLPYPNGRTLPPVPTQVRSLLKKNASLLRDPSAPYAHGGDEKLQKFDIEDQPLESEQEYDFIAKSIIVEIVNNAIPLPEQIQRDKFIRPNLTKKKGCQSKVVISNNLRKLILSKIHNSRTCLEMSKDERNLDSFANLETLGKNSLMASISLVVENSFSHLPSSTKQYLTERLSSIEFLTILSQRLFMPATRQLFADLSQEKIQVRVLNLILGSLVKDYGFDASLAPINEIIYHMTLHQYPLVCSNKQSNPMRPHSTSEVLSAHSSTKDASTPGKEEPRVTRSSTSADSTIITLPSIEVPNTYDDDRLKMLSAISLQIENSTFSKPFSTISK
- assayProtocol: PBM E-score (8-mer binding enrichment) (E-score (-0.5 to 0.5)); higher = stronger / more preferred TF binding
- conditionInfo: protein concentration: 200 nM; construct: GST-full length
Over roughly 33,000 sequences, “E-score (-0.5 to 0.5)” has its median near -0.036; the highest 2% begin near 0.37. The list comes from a sample in which the highest values are over-represented; it also holds close analogues and randomly drawn sequences.

>  <biopolymerSequence>
CCACGTTC

>  <PBM E-score>
-0.218

$$$$
>  <biopolymerSequence>
CTAGAAAC

>  <PBM E-score>
0.0516

$$$$
>  <biopolymerSequence>
ATCATTTA

>  <PBM E-score>
0.327

$$$$
>  <biopolymerSequence>
CCAGGATC

>  <PBM E-score>
-0.0208

$$$$
>  <biopolymerSequence>
CACTACAC

>  <PBM E-score>
-0.0592

$$$$
>  <biopolymerSequence>
TACTACAA

>  <PBM E-score>
0.119

$$$$
>  <biopolymerSequence>
CTTACGTA

>  <PBM E-score>
0.131

$$$$
>  <biopolymerSequence>
AAGTCGGT

>  <PBM E-score>
0.0145

$$$$
>  <biopolymerSequence>
GCTTCGAC

>  <PBM E-score>
-0.126

$$$$
>  <biopolymerSequence>
AATAAGAC

>  <PBM E-score>
0.175

$$$$
>  <biopolymerSequence>
CGTACGCA

>  <PBM E-score>
-0.195

$$$$
>  <biopolymerSequence>
CACTACAA

>  <PBM E-score>
0.0688

$$$$
>  <biopolymerSequence>
AGCCGAGA

>  <PBM E-score>
0.0772

$$$$
>  <biopolymerSequence>
CGCACAAG

>  <PBM E-score>
0.0388

$$$$
>  <biopolymerSequence>
AATTACCT

>  <PBM E-score>
0.0151

$$$$
>  <biopolymerSequence>
ACTGCGTA

>  <PBM E-score>
0.0638

$$$$
>  <biopolymerSequence>
AAAGTCCA

>  <PBM E-score>
0.0185

$$$$
>  <biopolymerSequence>
GTGGCAAC

>  <PBM E-score>
-0.295

$$$$
>  <biopolymerSequence>
TAATCCGA

>  <PBM E-score>
0.205

$$$$
>  <biopolymerSequence>
CGCTACGC

>  <PBM E-score>
-0.323

$$$$
>  <biopolymerSequence>
ATTAGCCG

>  <PBM E-score>
-0.106

$$$$
